Reference for the values: patent US7482459B2

# test_target: recombinant human β tryptase (Homo sapiens, UniProt Q15661)
# Sequence (Q15661 31-275): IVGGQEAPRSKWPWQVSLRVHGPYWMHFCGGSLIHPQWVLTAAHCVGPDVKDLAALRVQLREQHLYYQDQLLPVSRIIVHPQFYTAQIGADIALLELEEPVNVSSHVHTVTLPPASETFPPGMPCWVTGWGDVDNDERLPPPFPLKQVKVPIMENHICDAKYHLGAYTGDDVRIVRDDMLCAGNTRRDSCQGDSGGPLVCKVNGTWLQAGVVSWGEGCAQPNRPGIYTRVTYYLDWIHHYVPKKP
# test_details: β-Tryptase inhibitory potency, chromogenic enzyme assay (S2366 substrate)
# recorded_conditions: 0.5 mM substrate S2366 (2×Km), room temperature
reported_metric: IC50
# output: number + unit

-- ask Fill in the blank: the reported IC50 of CCCOc1sc(C(=O)N2CCC(c3cc(CN)ccc3F)CC2)c(C)c1Br is ____.
-- reply 76 nM
